molecular target: human Izumo1_(22-254), wild type (human, UniProt Q8IYV9-1 22-254); assay: BLI
Sequence (Q8IYV9 22-254): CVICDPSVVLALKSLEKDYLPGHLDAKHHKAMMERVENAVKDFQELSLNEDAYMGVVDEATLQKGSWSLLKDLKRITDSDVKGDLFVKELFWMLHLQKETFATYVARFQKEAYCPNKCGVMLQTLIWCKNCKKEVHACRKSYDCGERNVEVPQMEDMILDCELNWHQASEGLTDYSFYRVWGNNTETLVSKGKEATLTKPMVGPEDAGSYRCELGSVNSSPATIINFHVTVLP
Readout name: pKd
Give only the number. pKd is defined as minus log10 of concentration in molar units.

Example entries begin here.
{"Binder": "E45K Juno_(20-228) (domain or fragment, human, UniProt A6ND01-1 20-228, looked up, biotinylated with the EZ link sulfo-NHS-LC-biotinylation kit (in the BLI assay only)) GDELLNICMNAKHHKRVPSPEDKLYKECIPWKDNACCTLTTSWEAHLDVSPLYNFSLFHCGLLMPGCRKHFIQAICFYECSPNLGPWIQPVGSLGWEVAPSGQGERVVNVPLCQEDCEEWWEDCRMSYTCKSNWRGGWDWSQGKNRCPKGAQCLPFSHYFPTPADLCEKTWSNSFKASPERRNSGRCLQKWFEPAQGNPNVAVARLFAS", "Numeric result": 5.55}
{"Binder": "W62A Juno_(20-228) (domain or fragment, human, UniProt A6ND01-1 20-228, looked up, biotinylated with the EZ link sulfo-NHS-LC-biotinylation kit (BLI)) GDELLNICMNAKHHKRVPSPEDKLYEECIPWKDNACCTLTTSAEAHLDVSPLYNFSLFHCGLLMPGCRKHFIQAICFYECSPNLGPWIQPVGSLGWEVAPSGQGERVVNVPLCQEDCEEWWEDCRMSYTCKSNWRGGWDWSQGKNRCPKGAQCLPFSHYFPTPADLCEKTWSNSFKASPERRNSGRCLQKWFEPAQGNPNVAVARLFAS", "Numeric result": 6.44}
{"Binder": "human Juno_(20-228), wild type (domain or fragment, UniProt A6ND01-1 20-228, looked up, biotinylated with the EZ link sulfo-NHS-LC-biotinylation kit (in the BLI assay only)) GDELLNICMNAKHHKRVPSPEDKLYEECIPWKDNACCTLTTSWEAHLDVSPLYNFSLFHCGLLMPGCRKHFIQAICFYECSPNLGPWIQPVGSLGWEVAPSGQGERVVNVPLCQEDCEEWWEDCRMSYTCKSNWRGGWDWSQGKNRCPKGAQCLPFSHYFPTPADLCEKTWSNSFKASPERRNSGRCLQKWFEPAQGNPNVAVARLFAS", "Numeric result": 7.23}

Next up:
Check the records and state pKd for E45A Juno_(20-228) (domain or fragment, human, UniProt A6ND01-1 20-228, looked up, biotinylated with the EZ link sulfo-NHS-LC-biotinylation kit (BLI)) GDELLNICMNAKHHKRVPSPEDKLYAECIPWKDNACCTLTTSWEAHLDVSPLYNFSLFHCGLLMPGCRKHFIQAICFYECSPNLGPWIQPVGSLGWEVAPSGQGERVVNVPLCQEDCEEWWEDCRMSYTCKSNWRGGWDWSQGKNRCPKGAQCLPFSHYFPTPADLCEKTWSNSFKASPERRNSGRCLQKWFEPAQGNPNVAVARLFAS
6.17
